Molecular target: T1, CAPRIN-1 protein expressed on the membrane surface of human cancer cells (human, UniProt Q14444 2-709)
T1 sequence (looked up): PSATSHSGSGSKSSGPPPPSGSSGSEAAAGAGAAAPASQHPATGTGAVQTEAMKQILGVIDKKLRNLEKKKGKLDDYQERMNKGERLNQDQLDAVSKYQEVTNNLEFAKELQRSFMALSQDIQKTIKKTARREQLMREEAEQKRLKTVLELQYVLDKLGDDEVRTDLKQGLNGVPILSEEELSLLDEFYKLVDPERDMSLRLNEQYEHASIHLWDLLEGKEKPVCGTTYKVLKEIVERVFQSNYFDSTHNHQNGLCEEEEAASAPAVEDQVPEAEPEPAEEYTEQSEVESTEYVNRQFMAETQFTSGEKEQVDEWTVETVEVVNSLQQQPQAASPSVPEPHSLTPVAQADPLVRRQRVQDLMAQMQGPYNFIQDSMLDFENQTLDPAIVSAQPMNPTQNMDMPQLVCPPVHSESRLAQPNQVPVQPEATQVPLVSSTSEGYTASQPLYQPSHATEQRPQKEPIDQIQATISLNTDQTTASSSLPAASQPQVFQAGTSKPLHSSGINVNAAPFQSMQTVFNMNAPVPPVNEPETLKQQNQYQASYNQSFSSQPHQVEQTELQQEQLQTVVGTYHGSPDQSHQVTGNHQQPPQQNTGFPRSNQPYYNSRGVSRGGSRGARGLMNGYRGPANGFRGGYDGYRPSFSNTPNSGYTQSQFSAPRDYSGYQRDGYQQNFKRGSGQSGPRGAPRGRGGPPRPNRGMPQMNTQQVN
Assay: cell-based or functional assay
ADCC cytotoxic activity (51Cr release) on BT-474 reference

binder | observed measurement
humanized antibody #0 (antibody, V domains shown) VH: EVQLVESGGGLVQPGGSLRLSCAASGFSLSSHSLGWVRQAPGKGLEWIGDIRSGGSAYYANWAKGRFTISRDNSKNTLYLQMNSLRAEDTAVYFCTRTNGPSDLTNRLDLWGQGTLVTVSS VL: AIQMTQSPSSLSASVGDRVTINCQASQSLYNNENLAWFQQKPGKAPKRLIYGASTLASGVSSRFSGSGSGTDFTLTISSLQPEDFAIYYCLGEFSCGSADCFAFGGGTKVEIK | ≥ 46%

Ask | Entry under review: humanized antibody #8 (antibody, V domains shown) VH: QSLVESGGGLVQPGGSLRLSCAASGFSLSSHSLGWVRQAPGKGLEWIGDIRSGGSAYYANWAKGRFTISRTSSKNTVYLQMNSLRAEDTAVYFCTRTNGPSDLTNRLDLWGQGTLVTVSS VL: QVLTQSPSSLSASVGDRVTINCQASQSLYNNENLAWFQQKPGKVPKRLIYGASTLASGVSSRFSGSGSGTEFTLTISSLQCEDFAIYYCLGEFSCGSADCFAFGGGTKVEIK . Reported ADCC cytotoxic activity (51Cr release) on BT-474?
Reply | ≥ 46%

Ask | Please give the measured ADCC cytotoxic activity (51Cr release) on BT-474 for this binder: humanized antibody #9 (antibody, V domains shown) VH: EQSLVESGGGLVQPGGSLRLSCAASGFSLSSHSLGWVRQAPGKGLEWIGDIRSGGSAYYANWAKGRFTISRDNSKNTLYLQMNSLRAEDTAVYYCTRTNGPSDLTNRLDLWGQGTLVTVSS VL: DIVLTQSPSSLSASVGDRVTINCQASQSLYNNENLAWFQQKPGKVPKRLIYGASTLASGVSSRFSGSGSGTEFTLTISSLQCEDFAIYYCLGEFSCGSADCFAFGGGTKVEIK
Reply | ≥ 46%

Ask | Could you tell me which ADCC cytotoxic activity (51Cr release) on BT-474 is on file for humanized antibody #4 (antibody, V domains shown) VH: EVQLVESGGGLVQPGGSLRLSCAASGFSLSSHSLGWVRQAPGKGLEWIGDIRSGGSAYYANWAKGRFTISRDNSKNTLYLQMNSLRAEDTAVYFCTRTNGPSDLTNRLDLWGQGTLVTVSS VL: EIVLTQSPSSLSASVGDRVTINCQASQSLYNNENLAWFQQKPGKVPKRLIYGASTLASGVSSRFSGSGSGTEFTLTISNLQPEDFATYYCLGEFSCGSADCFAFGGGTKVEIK ?
Reply | ≥ 50%
